target: glucagon receptor (UniProt P47871 26-477, limits assumed); assay: cell-based or functional assay
Sequence (P47871 26-477 limits assumed): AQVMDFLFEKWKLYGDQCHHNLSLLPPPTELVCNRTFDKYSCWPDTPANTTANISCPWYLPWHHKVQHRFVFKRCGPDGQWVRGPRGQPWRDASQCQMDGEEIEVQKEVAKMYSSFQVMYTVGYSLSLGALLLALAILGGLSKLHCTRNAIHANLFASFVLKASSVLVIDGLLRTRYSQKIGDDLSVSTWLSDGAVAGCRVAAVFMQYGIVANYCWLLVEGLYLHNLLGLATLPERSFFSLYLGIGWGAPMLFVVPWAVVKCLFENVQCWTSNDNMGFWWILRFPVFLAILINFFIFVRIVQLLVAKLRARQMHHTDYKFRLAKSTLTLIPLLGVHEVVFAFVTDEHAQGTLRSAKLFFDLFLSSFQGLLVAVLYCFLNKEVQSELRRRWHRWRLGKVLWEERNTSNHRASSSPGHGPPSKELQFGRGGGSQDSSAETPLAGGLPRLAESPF
Bridge positions count the residues as written; N and C are the ends. Ends that are not written are not given here. PLA = phenyl lactic acid
Listing: Glucagon IC50 of selected binders
reported property: Glucagon IC50 (nM)

# binder, reported property, value observed
data = [
    ("{PLA}-TSDYSKYLDERRAQDFVQWLMDT (lactam 6-10) [[PLA6, D9, K12E16(Lactam), D28]G(6-29)]", "Glucagon IC50", 63),
    ("{PLA}-TSDYSKYLDERRAKDFVEWLMDT (lactam 14-18) [[PLA6, D9, E16, K20E24(Lactam), D28]G(6-29)]", "Glucagon IC50", 74),
    ("AEGTFTSEYSKYLDERRAKDFVQWLMDT (lactam 15-19) [[A2E3, E16K20(Lactam), D28]G(2~29)]", "Glucagon IC50", 63),
    ("{PLA}-TSDYSKYLDERRAQDFVEWLMKT (lactam 18-22) [[PLA6, D9, E16, E24K28(lactam)]G(6~29)]", "Glucagon IC50", 22),
]
